Test system: NOMO1
EXPERIMENT_DESCRIPTION: cell viability relative to DMSO control; higher = less cytotoxic
ASSAY_CONDITIONS: HPLM + 10% dialyzed FBS; 48 h; 0.000781 µM
ENDPOINT: cell viability
Returns: string containing the number followed by the unit.

O=NN(CCCl)C(=O)NCCCl    89.1%

Lookup: cell viability / NOMO1 / "CC(=O)Nc1ccc(OC[C@](C)(O)C(=O)Nc2ccc([N+](=O)[O-])c(C(F)(F)F)c2)cc1"
66.3%

Input "CCCc1nc(C(C)(C)O)c(C(=O)O)n1Cc1ccc(-c2ccccc2-c2nn[nH]n2)cc1"
97.7%

Input "N=C(CCSCc1csc(N=C(N)N)n1)N[S+](N)(=O)[O-]"
87%

Input "OC(=O)C1=CC=C(NC2=NC3=C(C\N=C(/C4=CC(=CC=C34)Cl)C5=C(F)C=CC=C5F)C=N2)C=C1"
87.2%

Input "COc1ccc(-c2cc3nccn3c(Nc3ncccc3C(N)=O)n2)cc1OC"
125%

Input "CCCCCCCCCCCCCCCCCCCCCCO"
108%

Input "COC1=NC(=NC(=C1N\C2=N\CCN2)Cl)C"
113%

Input "O=C(OC)[C@]12CC[C@@]3(C)[C@]4(C)CC[C@H]5[C@@](C)(C)C(=O)C(=C[C@]5(C)C4=CC(=O)[C@@H]3[C@@H]2C[C@](C)(C)CC1)C#N"
95%

Input "CC/1=C/C(=O)N(O)/C(=C1)C2CCCCC2"
110%

Input "C=C(C)[C@@H]1CC[C@]2(C(=O)O)CC[C@]3(C)[C@H](CC[C@@H]4[C@@]5(C)CC[C@H](O)C(C)(C)[C@@H]5CC[C@]43C)[C@@H]12"
115%

Input "NC1(Cc2ccc(Cl)cc2)CCN(c2ncnc3[nH]ccc23)CC1"
97.7%
